target entity: trehalose-releasing enzyme (Rhizobium sp. M-11, UniProt Q53238)
Construct: M-11, about 58-68 kDa
Sequence (Q53238 whole entry): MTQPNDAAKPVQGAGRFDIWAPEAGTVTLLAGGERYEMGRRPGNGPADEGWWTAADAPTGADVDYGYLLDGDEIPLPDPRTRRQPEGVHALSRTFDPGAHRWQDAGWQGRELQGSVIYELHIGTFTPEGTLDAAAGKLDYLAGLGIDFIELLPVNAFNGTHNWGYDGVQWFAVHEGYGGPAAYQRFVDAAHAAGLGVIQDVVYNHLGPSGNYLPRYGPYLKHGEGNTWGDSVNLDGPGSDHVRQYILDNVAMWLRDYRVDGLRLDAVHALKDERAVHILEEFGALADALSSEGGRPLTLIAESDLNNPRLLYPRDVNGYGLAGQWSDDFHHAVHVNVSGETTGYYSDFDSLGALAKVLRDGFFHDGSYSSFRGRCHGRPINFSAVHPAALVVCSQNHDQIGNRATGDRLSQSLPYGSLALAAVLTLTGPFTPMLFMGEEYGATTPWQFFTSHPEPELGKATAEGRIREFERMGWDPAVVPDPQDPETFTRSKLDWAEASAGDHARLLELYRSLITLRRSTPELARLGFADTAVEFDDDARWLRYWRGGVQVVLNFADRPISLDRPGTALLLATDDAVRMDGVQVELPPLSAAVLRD
Format: biochemical, Rhizobium species M-11
study conditions: trehalose-releasing enzyme, 48 h, pH 7
attribute measured: Composition: residual substrate (%)
# output: bare number, implied unit %

The reported Composition: residual substrate of the compound OC[C@H]1O[C@H](O[C@H]2[C@H](O)[C@@H](O)[C@@H](O[C@H]3[C@H](O)[C@@H](O)[C@@H](O[C@H]4[C@H](O)[C@@H](O)[C@@H](O[C@H]5[C@H](O)[C@@H](O)C(O)O[C@@H]5CO)O[C@@H]4CO)O[C@@H]3CO)O[C@@H]2CO)[C@H](O)[C@@H](O)[C@@H]1O (stereo partly shown) [Maltopentaose, maltopentaose, reference compound] was 100
